Property: IC50; scope: individual molecules
# EXPERIMENTAL DETAILS: Inhibition of Escherichia coli BL21(DE3) LpxC C63A mutant using UDP-3-O-(R-3-hydroxymyristoyl)-N-acetylglucosamine as substrate incubated for 30 mins by o-phthaldialdehyde-2-mercaptoethanol based fluorescence assay
Give the number; µM is assumed, so skip it.

Example entries and their recorded answers appear below.
[
  {
    "LINE NOTATION": "O=C(NO)[C@H](CO)O[C@@H](CO)c1ccc(C#Cc2ccc(CN3CCOCC3)cc2)cc1",
    "IC50 / µM": 21
  },
  {
    "LINE NOTATION": "O=C(NO)[C@@H]1O[C@H](c2ccc(C#CC#Cc3ccccc3)cc2)[C@@H](O)[C@H]1O",
    "IC50 / µM": 5
  },
  {
    "LINE NOTATION": "O=C(NO)[C@@H]1O[C@@H](c2ccc(C#CC#Cc3ccccc3)cc2)[C@@H](O)[C@H]1O",
    "IC50 / µM": 15
  },
  {
    "LINE NOTATION": "O=C(NO)[C@H](CO)O[C@@H](CO)c1ccc(C#CC#Cc2ccccc2)cc1",
    "IC50 / µM": 4.4
  },
  {
    "LINE NOTATION": "O=C(NO)[C@@H](CO)O[C@@H](CO)c1ccc(C#CC#Cc2ccccc2)cc1",
    "IC50 / µM": 20
  }
]

Now for the molecule whose IC50 we want.
In plain terms, O=C(NO)[C@H]1O[C@H](c2ccc(C#Cc3ccc(CN4CCOCC4)cc3)cc2)[C@@H](O)[C@H]1O has a documented IC50 of 34
